Biological target: USP54 (UniProt Q70EL1)
Sequence (Q70EL1 whole entry, the tested form may be a part): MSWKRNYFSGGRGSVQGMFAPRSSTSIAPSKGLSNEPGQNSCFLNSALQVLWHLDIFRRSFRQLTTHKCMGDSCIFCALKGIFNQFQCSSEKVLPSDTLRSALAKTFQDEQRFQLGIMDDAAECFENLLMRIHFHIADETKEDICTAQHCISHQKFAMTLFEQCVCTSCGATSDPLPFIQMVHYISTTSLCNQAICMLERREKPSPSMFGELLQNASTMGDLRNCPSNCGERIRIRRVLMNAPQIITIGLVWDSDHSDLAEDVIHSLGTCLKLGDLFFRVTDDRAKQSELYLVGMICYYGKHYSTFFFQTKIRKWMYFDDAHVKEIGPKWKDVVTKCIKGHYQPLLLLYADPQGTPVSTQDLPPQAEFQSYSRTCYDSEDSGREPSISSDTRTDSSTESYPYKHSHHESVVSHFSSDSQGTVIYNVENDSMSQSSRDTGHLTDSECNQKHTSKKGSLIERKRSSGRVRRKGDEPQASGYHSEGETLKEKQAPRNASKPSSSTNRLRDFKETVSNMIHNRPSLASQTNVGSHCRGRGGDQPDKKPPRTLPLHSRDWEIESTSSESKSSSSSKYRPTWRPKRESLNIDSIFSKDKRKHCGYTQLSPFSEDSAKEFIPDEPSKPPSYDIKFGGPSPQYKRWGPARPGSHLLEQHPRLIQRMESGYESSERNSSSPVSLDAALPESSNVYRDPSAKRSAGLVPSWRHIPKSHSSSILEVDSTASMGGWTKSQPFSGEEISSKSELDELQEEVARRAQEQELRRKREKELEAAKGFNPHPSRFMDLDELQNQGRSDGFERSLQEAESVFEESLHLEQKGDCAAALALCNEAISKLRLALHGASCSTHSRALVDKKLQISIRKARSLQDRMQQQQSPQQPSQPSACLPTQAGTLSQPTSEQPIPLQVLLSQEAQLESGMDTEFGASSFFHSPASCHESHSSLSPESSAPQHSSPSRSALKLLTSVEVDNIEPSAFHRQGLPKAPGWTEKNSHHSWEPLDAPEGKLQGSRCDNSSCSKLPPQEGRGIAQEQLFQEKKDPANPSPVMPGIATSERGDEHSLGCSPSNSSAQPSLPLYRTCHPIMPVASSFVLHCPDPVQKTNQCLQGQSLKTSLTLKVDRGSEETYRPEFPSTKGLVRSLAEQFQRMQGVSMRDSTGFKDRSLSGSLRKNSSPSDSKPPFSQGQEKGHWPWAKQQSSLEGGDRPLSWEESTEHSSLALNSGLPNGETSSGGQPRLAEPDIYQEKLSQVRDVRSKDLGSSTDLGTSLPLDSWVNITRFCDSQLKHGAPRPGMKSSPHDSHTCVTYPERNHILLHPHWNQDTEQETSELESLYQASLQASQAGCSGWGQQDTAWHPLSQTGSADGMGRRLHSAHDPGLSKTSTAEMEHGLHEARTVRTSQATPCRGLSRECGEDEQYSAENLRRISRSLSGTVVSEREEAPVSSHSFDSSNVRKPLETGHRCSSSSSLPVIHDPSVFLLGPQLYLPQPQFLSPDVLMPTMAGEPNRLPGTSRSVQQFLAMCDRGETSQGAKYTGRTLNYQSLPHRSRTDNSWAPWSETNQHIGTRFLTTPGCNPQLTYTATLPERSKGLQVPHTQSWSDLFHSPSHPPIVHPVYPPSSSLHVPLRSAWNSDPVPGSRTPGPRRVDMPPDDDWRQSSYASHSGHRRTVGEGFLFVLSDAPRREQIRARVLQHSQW
Experiment: log2 ratio of Biotin-Ahx-Ub-VS probe labelling (fragment/DMSO); higher = less target engagement (more negative = stronger competition), active = hit call of the paper (q ≤ 0.05, log2 ratio ≤ -1)
Conditions: compound concentration: 200 uM; treatment time: 3 h
Think of 0.3 as a floor: if log2 ratio of Biotin-Ahx-Ub-VS probe labelling stands on it or above, it is yes; beneath it, no.

{"compound": "O=C(CCl)N1CCC(c2ccn[nH]2)C1 (configuration not stated)", "answer_label": "no"}
{"compound": "O=C(CCl)N1CCC(C(=O)N2CCCCCC2)CC1", "answer_label": "yes"}
{"compound": "O=C(CCl)N1CCOCC1C1CC1 (configuration not stated)", "answer_label": "yes"}
{"compound": "O=C(CCl)NCc1cccc(F)c1", "answer_label": "yes"}
{"compound": "Cl.O=C(CCl)NCc1ccnc(Oc2ccccc2F)c1", "answer_label": "yes"}
{"compound": "CC(NC(=O)CCl)c1csc(-c2ccccc2)n1.Cl (configuration not stated)", "answer_label": "yes"}
{"compound": "O=C(CCl)N1CCN(c2nc3ccccc3o2)CC1", "answer_label": "no"}
{"compound": "O=C(CCl)NCCc1ccc(F)cc1", "answer_label": "yes"}
{"compound": "CN1c2ccccc2C(NC(=O)CCl)CS1(=O)=O (configuration not stated)", "answer_label": "yes"}
{"compound": "O=C(CCl)Nc1cc2c(cc1Cl)OCCO2", "answer_label": "no"}
{"compound": "COc1ccc(C2CCCN2C(=O)CCl)c(OC)c1 (configuration not stated)", "answer_label": "no"}
{"compound": "O=C(CCl)N1CCc2nc[nH]c2C1c1ccc(Cl)cc1 (configuration not stated)", "answer_label": "no"}
{"compound": "Cc1nc(CN2CCN(C(=O)CCl)CC2)cs1", "answer_label": "no"}
{"compound": "CNC(=O)Cn1cc(NC(=O)CCl)cn1", "answer_label": "yes"}
{"compound": "NC(=O)C1CCCN(C(=O)CCl)C1 (configuration not stated)", "answer_label": "yes"}
{"compound": "O=C(CCl)N1CCN(C(=O)Nc2ccccc2)CC1", "answer_label": "yes"}
{"compound": "CC(=O)Nc1ccc(NC(=O)CCl)cc1", "answer_label": "yes"}
{"compound": "Cl.O=C(CN1CCN(C(=O)CCl)CC1)Nc1ccc(F)cc1", "answer_label": "no"}
{"compound": "O=C(CCl)NC1CCC(C(F)(F)F)CC1 (configuration not stated)", "answer_label": "no"}
{"compound": "CC(NC(=O)CCl)c1noc(Cc2ccccc2)n1 (configuration not stated)", "answer_label": "yes"}
{"compound": "Cl.O=C(CCl)N1CCc2ncncc2C1", "answer_label": "no"}
{"compound": "N#Cc1ccccc1N1CCN(C(=O)CCl)CC1", "answer_label": "yes"}
{"compound": "O=C(CCl)Nc1ccc(N2CCCC2=O)cc1", "answer_label": "yes"}
{"compound": "O=C(CCl)N1CCc2[nH]c3ccccc3c2C1", "answer_label": "no"}
{"compound": "C/C(=C\\CNC(=O)CCl)c1cnn(C)c1.Cl", "answer_label": "no"}
{"compound": "O=C(CCl)NCCC1COCCO1 (configuration not stated)", "answer_label": "no"}
{"compound": "COCC[C@@H](NC(=O)CCl)c1ccccc1", "answer_label": "no"}
{"compound": "Cc1noc(N2CCN(C(=O)CCl)CC2)n1.Cl", "answer_label": "no"}
{"compound": "Cn1cc(CN(Cc2ccc(Cl)cc2)C(=O)CCl)cn1", "answer_label": "no"}
{"compound": "O=C(CCl)NCCC1=CCCCC1", "answer_label": "no"}
{"compound": "Cc1ccc(C(=O)NCCNC(=O)CCl)cc1", "answer_label": "yes"}
{"compound": "Cc1ccc(N(CCC#N)C(=O)CCl)cc1C", "answer_label": "no"}
{"compound": "Cc1ccc(CN(C)C(=O)CCl)o1", "answer_label": "yes"}
{"compound": "NS(=O)(=O)c1ccc(Cl)c(NC(=O)CCl)c1", "answer_label": "no"}
{"compound": "CC(NC(=O)CCl)c1cc2n(n1)CCCC2.Cl (configuration not stated)", "answer_label": "yes"}
{"compound": "Cl.O=C(CCl)N1CCn2cncc2C1", "answer_label": "no"}
{"compound": "O=C(CCl)N1CCCCC12CCOCC2", "answer_label": "yes"}
{"compound": "Cc1ccc(CN(CCO)C(=O)CCl)cc1", "answer_label": "no"}
{"compound": "O=C(CCl)N1CCCC1c1ccsc1 (configuration not stated)", "answer_label": "yes"}
{"compound": "Cc1cnc2[nH]cc(CCNC(=O)CCl)c2c1", "answer_label": "no"}
{"compound": "Cl.O=C(CCl)NCc1cc2c(nc1O)CCCC2", "answer_label": "yes"}
{"compound": "C[C@H]1CN(C(=O)CCl)CCN1C(=O)c1cnn(C)c1.Cl", "answer_label": "no"}
{"compound": "CC(NC(=O)CCl)c1ccc2[nH]ncc2c1 (configuration not stated)", "answer_label": "yes"}
{"compound": "CN(C)C(=O)c1ccc(NC(=O)CCl)cc1", "answer_label": "no"}
{"compound": "Cl.Cn1cnc2cc(CNC(=O)CCl)ccc21", "answer_label": "no"}
{"compound": "Cc1cccc(C)c1NC(=O)CCl", "answer_label": "yes"}
{"compound": "COc1cc(Cl)c(C)cc1NC(=O)CCl", "answer_label": "yes"}
{"compound": "CC(NC(=O)CCl)c1cccc2ccccc12 (configuration not stated)", "answer_label": "no"}
{"compound": "Cc1ccc(CNC(=O)CCl)nc1C.Cl", "answer_label": "no"}
{"compound": "Cc1ccc2nnc(CNC(=O)CCl)n2c1", "answer_label": "yes"}
{"compound": "CC(c1ccccc1)N(C)C(=O)CCl (configuration not stated)", "answer_label": "no"}
{"compound": "Cc1ccc(C)c(Oc2ccc(CNC(=O)CCl)cn2)c1.Cl", "answer_label": "no"}
{"compound": "O=C(CCl)N1CCc2sccc2C1", "answer_label": "no"}
{"compound": "Cc1ncsc1CCNC(=O)CCl", "answer_label": "no"}
{"compound": "CC1CN(c2ccc(NC(=O)CCl)cc2)CC(C)O1 (configuration not stated)", "answer_label": "yes"}
{"compound": "O=C(CCl)N1CCN2C(=O)CCC2C1 (configuration not stated)", "answer_label": "yes"}
{"compound": "O=C(CCl)Nc1ccc2c(c1)OC(F)(F)O2", "answer_label": "yes"}
